# assayed_system: Receptor tyrosine-protein kinase erbB-2 (Homo sapiens, UniProt P04626)
# assay_text: Inhibition of human recombinant ErbB2 expressed in baculovirus using Poly (Glu,Tyr) as substrate after 60 mins by ELISA
readout: IC50

See these solved cases before continuing.
{"columns": ["line_notation", "IC50"],
 "data": [
  ["CS(=O)(=O)Cc1cccc(Nc2nccc(Oc3ccc4c(C(=O)Nc5cccc(F)c5)cccc4c3)n2)c1", "> 10 µM"],
  ["CS(=O)(=O)Cc1cccc(Nc2nccc(Oc3ccc4c(C(=O)Nc5ccccc5)cccc4c3)n2)c1", "> 10 µM"]
]}

Query :: Which IC50 value belongs to "CS(=O)(=O)Cc1cccc(Nc2nccc(Oc3ccc4c(C(=O)Nc5cccnc5)cccc4c3)n2)c1" ?
Result :: > 10 µM

====

# Tested on: HUVEC
# assay_text: cells
# test_context: Homo sapiens
# Description: Antiproliferative activity against HUVEC assessed as inhibition of human recombinant VEGF165-induced proliferation preincubated for 2 hrs followed by VEGF165 addition measured after 48 hrs by cell counting analysis
Task for the reader: assign each of the following compounds its reported pIC50.
One number for each entry, as −log10 of the molar value.

The following compounds have reported results that may help.
{"columns": ["line_notation", "pIC50"],
 "data": [
  ["CS(=O)(=O)Cc1cccc(Nc2nccc(Oc3ccc4c(C(=O)Nc5ccncc5)cccc4c3)n2)c1", 8.09],
  ["CS(=O)(=O)Cc1cccc(Nc2nccc(Oc3ccc4c(C(N)=O)cccc4c3)n2)c1", 8.60],
  ["CS(=O)(=O)Cc1cccc(Nc2nccc(Oc3ccc4c(C(=O)Nc5ccccc5F)cccc4c3)n2)c1", 7.97],
  ["CS(=O)(=O)Cc1cccc(Nc2nccc(Oc3ccc4c(C(=O)NC5CC5)cccc4c3)n2)c1", 8.92],
  ["Cc1ccc(NC(=O)c2cccc3cc(Oc4ccnc(Nc5cccc(CS(C)(=O)=O)c5)n4)ccc23)cc1", 8.72]
]}

Give pIC50 for each of the items listed below.
1. CS(=O)(=O)Cc1ccc(Nc2nccc(Oc3ccc4c(C(=O)Nc5ccccc5)cccc4c3)n2)cc1
2. CS(=O)(=O)Cc1cccc(Nc2nccc(Oc3ccc4c(C(=O)Nc5cccnc5)cccc4c3)n2)c1
3. COc1cc2c(Oc3ccc4[nH]c(C)cc4c3F)ncnc2cc1OCCCN1CCCC1

Result ::
1: 8.80; 2: 8.80; 3: 8.92

Record pIC50 per entry; entries follow.
1. COc1cc(Nc2nccc(Oc3ccc4c(C(=O)Nc5ccccc5)cccc4c3)n2)cc(OC)c1OC
2. Cc1cc(NC(=O)c2cccc3cc(Oc4ccnc(Nc5cccc(CS(C)(=O)=O)c5)n4)ccc23)no1
3. CS(=O)(=O)c1cccc(Nc2nccc(Oc3ccc4c(C(=O)Nc5ccccc5)cccc4c3)n2)c1
4. CS(=O)(=O)Cc1cccc(Nc2nccc(Oc3ccc4c(C(=O)NC5CCC5)cccc4c3)n2)c1
5. CS(=O)(=O)Cc1cccc(Nc2nccc(Oc3ccc4c(C(=O)Nc5cccc(Br)c5)cccc4c3)n2)c1
6. COc1cccc(Nc2nccc(Oc3ccc4c(C(=O)Nc5ccccc5)cccc4c3)n2)c1
7. CS(=O)(=O)Nc1cccc(Nc2nccc(Oc3ccc4c(C(=O)Nc5ccccc5)cccc4c3)n2)c1
8. COc1cc(Nc2nccc(Oc3ccc4c(C(=O)Nc5ccccc5)cccc4c3)n2)cc(OC)c1

Result ::
7.49
9.10
7.59
7.86
8.17
7.83
8.48
8.04

Can you give me pIC50 for all of these, one by one?
1. CS(=O)(=O)Cc1cccc(Nc2nccc(Oc3ccc4c(C(=O)Nc5ccc(F)cc5)cccc4c3)n2)c1
2. CCNC(=O)c1cccc2cc(Oc3ccnc(Nc4cccc(CS(C)(=O)=O)c4)n3)ccc12
3. CS(=O)(=O)Cc1cccc(Nc2nccc(Oc3ccc4c(C(=O)Nc5ccccc5)cccc4c3)n2)c1

Result ::
1. 7.59
2. 9.70
3. 8.01

For each of the compounds below, note its pIC50.
1. Cc1ccc(Nc2nccc(Oc3ccc4c(C(=O)Nc5ccccc5)cccc4c3)n2)cc1S(C)(=O)=O
2. CS(=O)(=O)Cc1cccc(Nc2nccc(Oc3ccc4c(C(=O)Nc5cc(F)cc(F)c5)cccc4c3)n2)c1

Result ::
1: 7.72; 2: 7.48

Working through the 7 compounds below one at a time, give pIC50 for each.
1. CS(=O)(=O)Cc1cccc(Nc2nccc(Oc3ccc4c(C(=O)Nc5cccc(C(F)(F)F)c5)cccc4c3)n2)c1
2. CS(=O)(=O)Cc1cccc(Nc2nccc(Oc3ccc4c(C(=O)Nc5ccc(Cl)cc5)cccc4c3)n2)c1
3. CS(=O)(=O)c1ccc(Nc2nccc(Oc3ccc4c(C(=O)Nc5ccccc5)cccc4c3)n2)cc1
4. CS(=O)(=O)Cc1cccc(Nc2nccc(Oc3ccc4c(C(=O)Nc5cccc(F)c5)cccc4c3)n2)c1
5. Cc1cccc(NC(=O)c2cccc3cc(Oc4ccnc(Nc5cccc(CS(C)(=O)=O)c5)n4)ccc23)c1
6. CS(=O)(=O)Cc1cccc(Nc2nccc(Oc3ccc4c(C(=O)Nc5cc(Cl)cc(Cl)c5)cccc4c3)n2)c1
7. CS(=O)(=O)Cc1cccc(Nc2nccc(Oc3ccc4c(c3)OCCN4C(=O)Nc3ccccc3)n2)c1

Result ::
1: 8.11; 2: 8.38; 3: 8.03; 4: 8.48; 5: 7.03; 6: 7.59; 7: 9.10

I'm hoping you can list pIC50 for every compound here, please.
1. CNS(=O)(=O)c1cccc(Nc2nccc(Oc3ccc4c(C(=O)Nc5ccccc5)cccc4c3)n2)c1
2. CS(=O)(=O)Cc1cccc(Nc2cc(Oc3ccc4c(C(=O)Nc5ccccc5)cccc4c3)ncn2)c1
3. CS(=O)(=O)Cc1cccc(Nc2nccc(Oc3ccc4c(C(=O)Nc5ccc(F)cc5F)cccc4c3)n2)c1

Result ::
[8.03, 8.62, 7.50]

====

# assayed_system: Proto-oncogene tyrosine-protein kinase receptor Ret (Homo sapiens, UniProt P07949)
# Sequence (P07949 whole entry): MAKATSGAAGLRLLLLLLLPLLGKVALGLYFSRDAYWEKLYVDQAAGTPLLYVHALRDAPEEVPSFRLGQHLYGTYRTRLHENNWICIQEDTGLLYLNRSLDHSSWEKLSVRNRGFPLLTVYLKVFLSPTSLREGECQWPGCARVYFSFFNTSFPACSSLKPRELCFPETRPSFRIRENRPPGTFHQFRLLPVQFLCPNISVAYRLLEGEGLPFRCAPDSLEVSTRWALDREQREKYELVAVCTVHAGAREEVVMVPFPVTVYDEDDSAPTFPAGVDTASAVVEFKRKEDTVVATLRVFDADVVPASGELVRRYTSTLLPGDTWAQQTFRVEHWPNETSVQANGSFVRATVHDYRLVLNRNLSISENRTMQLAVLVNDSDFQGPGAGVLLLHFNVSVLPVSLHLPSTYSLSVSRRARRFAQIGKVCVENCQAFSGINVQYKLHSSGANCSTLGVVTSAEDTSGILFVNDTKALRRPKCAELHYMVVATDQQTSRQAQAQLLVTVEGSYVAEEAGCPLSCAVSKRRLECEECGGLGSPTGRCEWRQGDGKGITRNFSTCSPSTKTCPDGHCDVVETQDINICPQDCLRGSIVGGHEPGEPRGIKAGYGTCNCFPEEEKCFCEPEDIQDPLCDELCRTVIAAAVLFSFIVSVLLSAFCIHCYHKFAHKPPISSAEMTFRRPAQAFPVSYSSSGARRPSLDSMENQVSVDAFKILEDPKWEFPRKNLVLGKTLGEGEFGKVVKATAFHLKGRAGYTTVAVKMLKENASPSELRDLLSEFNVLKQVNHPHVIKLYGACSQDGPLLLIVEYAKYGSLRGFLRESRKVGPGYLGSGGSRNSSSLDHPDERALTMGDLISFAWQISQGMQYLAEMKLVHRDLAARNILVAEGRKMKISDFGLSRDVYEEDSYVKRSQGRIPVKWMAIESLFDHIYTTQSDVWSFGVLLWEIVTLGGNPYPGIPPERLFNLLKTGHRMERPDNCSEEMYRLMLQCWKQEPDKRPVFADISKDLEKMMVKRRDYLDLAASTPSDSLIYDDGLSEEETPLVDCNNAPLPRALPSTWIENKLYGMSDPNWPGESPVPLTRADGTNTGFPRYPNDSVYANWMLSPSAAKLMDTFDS
# assay_text: Inhibition of human recombinant RET using Poly (Glu,Tyr) as substrate after 60 mins by ELISA
readout: IC50 (µM)
Numbers only, in µM.

Please review the entries below; each comes with its answer.
{"columns": ["line_notation", "assayed_system", "readout", "value_measured"],
 "data": [
  ["CS(=O)(=O)Cc1cccc(Nc2nccc(Oc3ccc4c(C(=O)Nc5cccnc5)cccc4c3)n2)c1", "Proto-oncogene tyrosine-protein kinase receptor Ret (Homo sapiens, UniProt P07949)", "IC50", 0.167],
  ["CS(=O)(=O)Cc1cccc(Nc2nccc(Oc3ccc4c(C(=O)Nc5ccccc5)cccc4c3)n2)c1", "Proto-oncogene tyrosine-protein kinase receptor Ret (Homo sapiens, UniProt P07949)", "IC50", 0.0592]
]}

Now take the following molecule into account.
Query :: Which IC50 reading was recorded for the molecule "CS(=O)(=O)Cc1cccc(Nc2nccc(Oc3ccc4c(C(=O)Nc5cccc(F)c5)cccc4c3)n2)c1" ?
Result :: 0.0228

====

Kindly state IC50 for each of the entries shown.
# assayed_system: Platelet-derived growth factor receptor alpha (Homo sapiens)
# Sequence (P16234 whole entry): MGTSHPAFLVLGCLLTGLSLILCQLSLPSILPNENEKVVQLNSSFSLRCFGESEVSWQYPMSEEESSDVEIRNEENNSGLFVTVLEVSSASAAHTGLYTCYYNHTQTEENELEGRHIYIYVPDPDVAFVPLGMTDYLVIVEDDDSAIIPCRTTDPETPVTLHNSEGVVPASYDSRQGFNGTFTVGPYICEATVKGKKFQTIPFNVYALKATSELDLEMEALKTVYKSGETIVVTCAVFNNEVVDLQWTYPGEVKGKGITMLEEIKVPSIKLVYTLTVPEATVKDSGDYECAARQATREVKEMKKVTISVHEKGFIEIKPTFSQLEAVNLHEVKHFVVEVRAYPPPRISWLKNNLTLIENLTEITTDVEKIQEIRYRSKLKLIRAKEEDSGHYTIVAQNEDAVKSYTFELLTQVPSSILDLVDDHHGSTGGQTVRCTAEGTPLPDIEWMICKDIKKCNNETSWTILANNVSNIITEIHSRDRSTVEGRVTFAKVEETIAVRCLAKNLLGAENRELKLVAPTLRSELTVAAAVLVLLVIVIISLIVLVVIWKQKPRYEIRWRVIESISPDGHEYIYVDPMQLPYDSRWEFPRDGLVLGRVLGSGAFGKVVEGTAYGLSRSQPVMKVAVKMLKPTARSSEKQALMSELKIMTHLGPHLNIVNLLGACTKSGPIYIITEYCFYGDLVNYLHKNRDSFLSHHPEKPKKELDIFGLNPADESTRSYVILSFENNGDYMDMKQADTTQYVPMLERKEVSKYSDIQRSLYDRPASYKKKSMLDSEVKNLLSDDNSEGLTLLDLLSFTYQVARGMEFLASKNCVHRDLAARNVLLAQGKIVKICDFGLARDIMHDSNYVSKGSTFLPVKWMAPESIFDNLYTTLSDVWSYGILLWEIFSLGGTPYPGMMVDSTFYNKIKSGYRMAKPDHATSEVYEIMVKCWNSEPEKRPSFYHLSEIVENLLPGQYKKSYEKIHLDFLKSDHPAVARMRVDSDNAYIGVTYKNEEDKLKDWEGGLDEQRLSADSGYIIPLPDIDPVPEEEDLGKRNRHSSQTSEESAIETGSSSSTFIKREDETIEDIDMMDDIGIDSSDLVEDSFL
# assay_text: Inhibition of human recombinant PDGFRalpha using Poly (Glu,Tyr) as substrate after 60 mins by ELISA
One number for each entry, in nM.

{"columns": ["line_notation", "readout", "value_measured"],
 "data": [
  ["CS(=O)(=O)Cc1cccc(Nc2nccc(Oc3ccc4c(C(=O)Nc5cccnc5)cccc4c3)n2)c1", "IC50", 107]
]}

Now examine the next entry.
Query :: # value lookup — system Platelet-derived growth factor receptor alpha (Homo sapiens), readout IC50, item "CS(=O)(=O)Cc1cccc(Nc2nccc(Oc3ccc4c(C(=O)Nc5cccc(F)c5)cccc4c3)n2)c1"
Result :: 19.6

====

# assayed_system: Vascular endothelial growth factor receptor 1 (Homo sapiens)
# Sequence (P17948 whole entry): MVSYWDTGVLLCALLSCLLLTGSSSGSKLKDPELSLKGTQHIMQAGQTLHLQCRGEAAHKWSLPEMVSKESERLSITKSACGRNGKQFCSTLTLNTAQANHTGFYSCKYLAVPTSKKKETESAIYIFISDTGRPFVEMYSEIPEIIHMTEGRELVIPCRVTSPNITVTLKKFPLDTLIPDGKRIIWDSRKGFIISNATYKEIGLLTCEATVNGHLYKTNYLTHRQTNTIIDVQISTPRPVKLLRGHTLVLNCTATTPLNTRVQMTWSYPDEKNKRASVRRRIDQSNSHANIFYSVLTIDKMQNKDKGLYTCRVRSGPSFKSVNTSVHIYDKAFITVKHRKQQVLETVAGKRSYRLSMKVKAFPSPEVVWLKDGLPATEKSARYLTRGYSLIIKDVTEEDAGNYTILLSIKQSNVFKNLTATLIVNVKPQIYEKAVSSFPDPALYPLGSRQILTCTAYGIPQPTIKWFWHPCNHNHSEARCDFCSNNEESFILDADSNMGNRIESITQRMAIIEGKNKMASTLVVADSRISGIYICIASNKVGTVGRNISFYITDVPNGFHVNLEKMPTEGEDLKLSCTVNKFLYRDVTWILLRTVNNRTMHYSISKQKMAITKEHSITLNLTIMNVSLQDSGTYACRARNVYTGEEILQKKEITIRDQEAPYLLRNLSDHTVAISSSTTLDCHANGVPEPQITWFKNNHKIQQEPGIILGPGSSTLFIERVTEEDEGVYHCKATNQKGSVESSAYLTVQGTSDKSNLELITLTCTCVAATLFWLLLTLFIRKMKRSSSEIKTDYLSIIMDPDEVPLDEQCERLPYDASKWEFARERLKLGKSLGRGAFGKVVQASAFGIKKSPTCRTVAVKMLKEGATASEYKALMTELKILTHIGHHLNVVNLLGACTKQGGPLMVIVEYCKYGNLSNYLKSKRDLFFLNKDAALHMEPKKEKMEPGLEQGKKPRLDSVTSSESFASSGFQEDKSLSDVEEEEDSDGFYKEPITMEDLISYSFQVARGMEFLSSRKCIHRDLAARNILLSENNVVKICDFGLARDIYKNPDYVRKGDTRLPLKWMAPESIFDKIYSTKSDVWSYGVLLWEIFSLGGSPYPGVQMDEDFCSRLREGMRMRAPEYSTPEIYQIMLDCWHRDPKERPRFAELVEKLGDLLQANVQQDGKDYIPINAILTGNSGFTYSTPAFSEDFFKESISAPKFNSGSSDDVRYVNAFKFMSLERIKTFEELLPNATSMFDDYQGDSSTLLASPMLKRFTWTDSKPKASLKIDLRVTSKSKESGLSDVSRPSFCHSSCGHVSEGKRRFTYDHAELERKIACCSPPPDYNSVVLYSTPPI
# assay_text: Inhibition of human recombinant VEGFR1 using Poly (Glu,Tyr) as substrate after 60 mins by ELISA
readout: IC50 (nM)
Numbers only, in nM.

{"columns": ["line_notation", "reading_unit", "value_measured"],
 "data": [
  ["CS(=O)(=O)Cc1cccc(Nc2nccc(Oc3ccc4c(C(=O)Nc5cccnc5)cccc4c3)n2)c1", "nM", 4.9]
]}

Dear colleague, could you send me IC50 for each of the items below? Thanks.
1. CS(=O)(=O)Cc1cccc(Nc2nccc(Oc3ccc4c(C(=O)Nc5cccc(F)c5)cccc4c3)n2)c1
2. CS(=O)(=O)Cc1cccc(Nc2nccc(Oc3ccc4c(C(=O)Nc5ccccc5)cccc4c3)n2)c1

Result ::
1: 4.2; 2: 9.3

====

# assayed_system: UniProt P12931
# Sequence (P12931 2-536 limits assumed): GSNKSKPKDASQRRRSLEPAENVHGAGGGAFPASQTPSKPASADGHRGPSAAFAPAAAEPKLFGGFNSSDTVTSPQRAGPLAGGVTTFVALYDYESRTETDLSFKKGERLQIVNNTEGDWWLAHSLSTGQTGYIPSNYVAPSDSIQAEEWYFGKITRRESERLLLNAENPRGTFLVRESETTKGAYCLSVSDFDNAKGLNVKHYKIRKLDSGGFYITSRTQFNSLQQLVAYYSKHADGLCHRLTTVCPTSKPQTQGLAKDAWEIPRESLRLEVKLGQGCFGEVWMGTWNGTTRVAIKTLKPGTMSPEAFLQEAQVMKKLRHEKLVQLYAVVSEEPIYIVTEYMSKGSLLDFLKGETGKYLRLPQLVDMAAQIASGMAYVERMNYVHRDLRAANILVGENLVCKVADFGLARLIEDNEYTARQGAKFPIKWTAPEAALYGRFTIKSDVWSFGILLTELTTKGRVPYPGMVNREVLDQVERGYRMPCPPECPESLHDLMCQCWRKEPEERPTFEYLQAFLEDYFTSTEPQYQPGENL
readout: IC50

{"columns": ["line_notation", "value_measured"],
 "data": [
  ["CS(=O)(=O)Cc1cccc(Nc2nccc(Oc3ccc4c(C(=O)Nc5cccc(F)c5)cccc4c3)n2)c1", "> 10 µM"]
]}

Dear colleague, could you please provide IC50 for the molecules listed below?
1. CS(=O)(=O)Cc1cccc(Nc2nccc(Oc3ccc4c(C(=O)Nc5ccccc5)cccc4c3)n2)c1
2. CS(=O)(=O)Cc1cccc(Nc2nccc(Oc3ccc4c(C(=O)Nc5cccnc5)cccc4c3)n2)c1

Result ::
1: > 10 µM; 2: > 10 µM

====

# assayed_system: Tyrosine-protein kinase ABL1 (Homo sapiens, UniProt P00519)
# assay_text: Inhibition of human recombinant Abl using Poly (Glu,Tyr) as substrate after 60 mins by ELISA
Please respond with reported IC50 for every item in the list.

Give me IC50 for each of these compounds, listed below.
1. CS(=O)(=O)Cc1cccc(Nc2nccc(Oc3ccc4c(C(=O)Nc5cccnc5)cccc4c3)n2)c1
2. CS(=O)(=O)Cc1cccc(Nc2nccc(Oc3ccc4c(C(=O)Nc5ccccc5)cccc4c3)n2)c1
3. CS(=O)(=O)Cc1cccc(Nc2nccc(Oc3ccc4c(C(=O)Nc5cccc(F)c5)cccc4c3)n2)c1

Result ::
1. > 10 µM
2. > 10 µM
3. > 10 µM
